Numbers sourced from PubChem BioAssay.

assay: basal S. cerevisiae growth modulation, no modifier, primary screen, OD600, strain BY4716, 24 h, basal condition (AID 1173); conditions: OD600, 24 h, higher = more signal, called active from +8 up or from −8 down
Catalogue of molecules with associated z-score
Lab note: record just the number, no unit beside it.

CC1=C2[C@@H](CCc3ccccc3)OB(O)C[C@@H]2n2c(=O)n(-c3ccccc3)c(=O)n2C1	-2.07

## Task What value of z-score has been recorded for this entry: COCCOC(=O)N1C(=O)[C@@]2(c3cc(C#CCCO)ccc31)[C@H](c1ccccc1OCCO)N1[C@H](c3ccccc3)[C@H](c3ccccc3)OC(=O)[C@H]1[C@@H]2C(=O)N1CCN(c2ncccn2)CC1
## Result 1.42

## Task I have this molecule here, COc1ccc(C(=O)Nc2cccc(CN3C(=O)[C@]4(O[C@H](CC(=O)N5CCC[C@H]5CO)[C@@H]([Si](C)(C)c5ccc(OC)cc5)[C@@H]4C)c4ccccc43)c2)cc1 , and I need its recorded z-score.
## Result -0.268

## Task Record request: z-score value, item CCCN1C(=O)[C@]2(COC(c3ccc(OCCCO)cc3)=N2)Cc2ccccc21
## Result -1.69

## Task Which z-score value belongs to CCOC(=O)C[C@H]1[C@H](OC(=O)c2ccc(-c3ccccc3)cc2)[C@@H](NC(=O)c2ccc(-c3ccccc3)cc2)c2cc(OCCCO)ccc2N1C(=O)Cc1ccc(OC)cc1 ?
## Result 0.353

## Task I'd like to know its z-score. The molecule in question is CCOC(=O)C1=C[C@@H](C(C)C)N(S(=O)(=O)c2ccc(C)cc2)[C@H]1c1ccc(C(C)C)cc1
## Result 1.05

## Task Item CCOC(=O)C1=CCC(C(C)(C)C)N(S(=O)(=O)c2ccc(C)cc2)C1 (stereo not drawn) has what recorded z-score?
## Result 0.586

## Task // lookup z-score for O=C/C=C/c1ccc2c(c1)OCO2
## Result -12.8

----------
Reported z-score values follow for various compounds
target: Homeobox protein Hox-A13 (Mus musculus) (UniProt Q62424); test: inhibitors of HoxA13-DNA binding, primary screen, biochemical, fluorescence polarization, labeled oligonucleotide (AID 1185); details: 15 min, higher = more signal, called active from +8 up or from −8 down
Sequence (Q62424 whole entry, looked up): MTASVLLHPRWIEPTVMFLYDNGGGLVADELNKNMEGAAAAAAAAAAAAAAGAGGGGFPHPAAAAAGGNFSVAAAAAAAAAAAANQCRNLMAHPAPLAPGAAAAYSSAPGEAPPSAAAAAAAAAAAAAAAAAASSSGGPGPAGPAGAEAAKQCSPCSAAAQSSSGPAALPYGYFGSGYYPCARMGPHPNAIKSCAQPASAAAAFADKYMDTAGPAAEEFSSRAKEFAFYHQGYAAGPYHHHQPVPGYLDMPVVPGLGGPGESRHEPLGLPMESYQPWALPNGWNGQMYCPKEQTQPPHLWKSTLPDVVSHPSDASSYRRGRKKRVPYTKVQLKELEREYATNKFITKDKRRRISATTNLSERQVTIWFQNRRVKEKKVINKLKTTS
The source made the active and inactive calls.

Examples with answers:
CCOC(=O)C1=C[C@@H](C(C)C)N(S(=O)(=O)c2ccc(C)cc2)[C@H]1c1ccc(C(C)C)cc1	-0.549 (inactive)
[N-]=[N+]=NCc1ccccc1[C@@H]1OC(c2ccc(OCCCO)cc2)=N[C@]1(Cc1ccccc1)C(=O)N1CCCCC1	-3.35 (inactive)
COCCCNC(=O)[C@@]1(c2ccc([N+](=O)[O-])cc2)CC(=O)N(CC23CC4CC(CC(C4)C2)C3)[C@@H]1c1ccc(CO)cc1	-5.17 (inactive)

Would you kindly look at the next entry?
## Task Which z-score reading was recorded for the compound C=C[C@@H](COC(C)=O)N(Cc1ccccc1[N+](=O)[O-])S(=O)(=O)c1ccc(Br)cc1 ?
## Result -2.89 (inactive)

----------
# z-score values compiled below
assay: basal MM1S mitochondrial membrane potential changes, profiling panel, cell-based, JC-1 fluorescence, 24 h, 100 nL compound (AID 1170); conditions: higher = more signal; also: test concentration not given here
Provide a numeric answer; units are not to be included.

Recorded results for 3 compounds are shown here.
O=C1OCCC=C[C@H]2OC34C=CCN(Cc5ccccc5)C(=O)[C@H]3N(CCCO)C(=O)[C@@H]4C12 (some centres undefined)	-0.559
CCCCCN1CC=CC23O[C@@H]4C=CCOC(=O)[C@@H]4[C@H]2C(=O)N(CCCO)[C@@H]3C1=O (some centres undefined)	0.208
O=C1O[C@H](c2ccccc2)[C@H](c2ccccc2)N2[C@H]1[C@@H](C(=O)NC[C@H](O)c1ccccc1)[C@]1(C(=O)Nc3ccc(C#CCCO)cc31)[C@H]2c1ccc(O)cc1	0.000313

Then there is this compound:
## Task Requested read-out: z-score. Entry: [N-]=[N+]=NCc1ccccc1C[C@]1(C(=O)NCC(O)CO)N=C(c2ccc(OCCCO)cc2)O[C@H]1c1ccccc1N=[N+]=[N-] (some centres undefined)
## Result -0.384

----------
target: Carbonic anhydrase 2 (Homo sapiens); assay: CAII small-molecule binders, profiling panel, biochemical, small-molecule microarray, Alexa647-labelled CAII (AID 1122); details: CAII-A647 binding fluorescence, higher = more signal
PARAMETER: composite z-score
Just the number, please.

Past entries and their recorded results:
C=C(C(=O)CC[C@H](OC(C)=O)c1ccc(OCCO)cc1)C(C)C	0.708
COc1ccc(C#Cc2ccc3c(c2)[C@]2(C(=O)N3)[C@H](c3ccc(O)cc3)N3[C@H](c4ccccc4)[C@H](c4ccccc4)OC(=O)[C@H]3[C@@H]2C(=O)NC[C@H](O)c2ccccc2)cc1	0.295
CC(C)C[C@@H]1NC(=O)[C@@H]2C[C@H](C(=O)NCCCCCC[N+](C)(C)C)[C@H](c3ccc(O)cc3)N2C1=O	0.678
CC(=O)C1=CCC(c2ccccc2)N(S(=O)(=O)c2ccc(C)cc2)C1 (stereo not drawn)	0.66
C=CCC(OC(C)=O)[C@@H]1[C@@H](N(Cc2ccc(-c3cccc(C(F)(F)F)c3)o2)C(=O)c2ccc(C)cc2)c2cc(OCCCO)ccc2N1C(=O)c1ccc(-c2ccccc2)cc1 (stereo partly drawn)	0.376

## Task Bench note: what composite z-score did Cc1ccc([C@H]2[C@H](C(=O)O)[C@H](Sc3ccccc3)[C@@H](C(C)C)N2S(=O)(=O)c2ccc(C)cc2)cc1 show?
## Result 0.66

## Task Would you mind telling me what composite z-score value was observed for COc1ccc([Si](C)(C)[C@@H]2[C@@H](CCn3cc([C@H](O)c4ccccc4)nn3)O[C@]3(C(=O)N(Cc4cccc(N5CCOC5=O)c4)c4ccccc43)[C@H]2C)cc1 ?
## Result -0.208

## Task Tell me the measured composite z-score of COCCOC(=O)N1C(=O)[C@@]2(c3cc(C#CCCO)ccc31)[C@H](C(=O)NC[C@H](O)c1ccccc1)[C@H]1C(=O)O[C@H](c3ccccc3)[C@H](c3ccccc3)N1[C@@H]2c1ccc(O)cc1 , please.
## Result 0.568

## Task What composite z-score value was documented for this compound, N#Cc1ccc(NN2C(C(O)C3CCCCC3)C=CC3C(=O)N(c4ccccc4)C(=O)C32)cc1 (stereo not drawn) ?
## Result 0.184

## Task Could you share which composite z-score value was measured for C[C@]1(C(=O)NCc2ccccc2)c2ccccc2C(=O)N(Cc2ccc(OC(F)(F)F)cc2)[C@H]1c1ccc(CO)cc1 ?
## Result 0.681

## Task # get_value(readout='composite z-score', item= CCOC(=O)C1=CC[C@@H](c2ccccc2Cl)N(S(=O)(=O)c2ccc(C)cc2)C1 )
## Result 0.563

## Task Can you look up the measured composite z-score of C=CCOC(=O)[C@@H]1[C@H]2C(=O)O[C@H](c3ccccc3)[C@H](c3ccccc3)N2[C@H](c2ccc(OCCOC(=O)[C@@H]3C[C@@H]4C(=O)N[C@@H](Cc5ccccc5)C(=O)N4[C@@H]3c3cccc(OCCO)c3)cc2)[C@@]12C(=O)Nc1ccc(I)cc12 for me?
## Result 0.537

## Task Any idea what its composite z-score is? The compound is [N-]=[N+]=NCc1ccccc1[C@@H]1OC(c2ccc(OCCCO)cc2)=N[C@]1(Cc1ccccc1)C(=O)N1CCCCC1
## Result 0.471

----------
molecular target: Focal adhesion kinase 1 (Homo sapiens); experiment: small-molecule microarray binders of FAK, primary screen, biochemical, 635/667 nm fluorescence, BSA, DTT (AID 1130); conditions: PTK2 binding, 635 nm fluorescence, higher = more signal;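 also: composite of spot emission at 667 nm and signal to noise over triplicate slides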
The molecules listed here are annotated with their composite z-score.
Quick one: just the number, no unit, thanks!

O=C1OCCC/C=C\[C@H]2OC34C=CCN(Cn5nnc6ccccc65)C(=O)[C@H]3N(CCCCCO)C(=O)[C@@H]4C12 (some centres not stated)	-0.43
COCCOC(=O)N1C(=O)[C@@]2(c3cc(C#CCCO)ccc31)[C@H](C(=O)NC[C@H](O)c1ccccc1)[C@H]1C(=O)O[C@H](c3ccccc3)[C@H](c3ccccc3)N1[C@@H]2c1ccc(O)cc1	0.148
COc1cc(C(O)C2C=CC3C(=O)N(c4ccccc4)C(=O)C3N2Nc2ccc(C#N)cc2)cc(OC)c1OC (configuration not stated)	1.04
Cc1ccc(S[C@]2(C(=O)O)CC(=O)N(C3Cc4ccccc4C3)[C@@H]2c2ccc(CO)cc2I)cc1	0.148
O=C1C2C=CC(C(O)c3ccc(-c4ccccc4)s3)N(n3cnnc3)C2C(=O)N1Cc1ccccc1 (configuration not stated)	0.0347
COc1ccc(C(O)C2C=CC3C(=O)N(c4ccccc4)C(=O)C3N2Nc2ccc([N+](=O)[O-])cc2)cc1OCc1ccccc1 (configuration not stated)	0.315

## Task Given the entry CC(C)NC(=O)[C@@H]1c2ccccc2C(=O)N(Cc2ccccc2)[C@H]1c1ccc(CO)cc1 , report its measured composite z-score.
## Result 0.512
